- Test system: 885512-296-R-J2-PDC complex spheroid growth, % test/control
- Protocol: Anticancer human tumor 885512-296-R-J2-PDC patient-derived breast carcinoma cell line growth inhibition [Asc]
- Assay Setup: second compound 0.0316 µM; first compound 0.0316 µM; hits give low values
Entries and their measured viability, T/C follow.
API: value field is a number in %; no unit string.

>  <Compound>
C=CC(=O)N1CCN(c2nc(=O)n(-c3c(C)ccnc3C(C)C)c3nc(-c4c(O)cccc4F)c(F)cc23)C(C)C1 (stereo unspecified) + CNC(C)C(=O)NC1CN(S(=O)(=O)c2cccc(S(=O)(=O)N3CCC4CCC(C(=O)NC(c5ccccc5)c5ccccc5)N4C(=O)C(NC(=O)C(C)NC)C3)c2)CCC2CCC(C(=O)NC(c3ccccc3)c3ccccc3)N2C1=O

>  <Observable>
viability, T/C

>  <Observed Measurement>
90.3

$$$$

Prompt line: Checklist item: viability, T/C tested on 885512-296-R-J2-PDC complex spheroid growth, % test/control, entry COc1c(OCCCN2CCOCC2)ccc2c3n(c(=NC(=O)c4cnc(N)nc4)nc12)CCN3 + CNC(C)C(=O)NC1CN(S(=O)(=O)c2cccc(S(=O)(=O)N3CCC4CCC(C(=O)NC(c5ccccc5)c5ccccc5)N4C(=O)C(NC(=O)C(C)NC)C3)c2)CCC2CCC(C(=O)NC(c3ccccc3)c3ccccc3)N2C1=O , value?
Response line: 89.3

Prompt line: Ok, now Cn1ncnc1[C@H]1c2n[nH]c(=O)c3cc(F)cc(c23)N[C@@H]1c1ccc(F)cc1 + CNC(C)C(=O)NC1CN(S(=O)(=O)c2cccc(S(=O)(=O)N3CCC4CCC(C(=O)NC(c5ccccc5)c5ccccc5)N4C(=O)C(NC(=O)C(C)NC)C3)c2)CCC2CCC(C(=O)NC(c3ccccc3)c3ccccc3)N2C1=O
Response line: 40.1

Prompt line: Ok, now CCN1CCN(Cc2ccc(Nc3ncc(F)c(-c4cc(F)c5nc(C)n(C(C)C)c5c4)n3)nc2)CC1 + CNC(C)C(=O)NC1CN(S(=O)(=O)c2cccc(S(=O)(=O)N3CCC4CCC(C(=O)NC(c5ccccc5)c5ccccc5)N4C(=O)C(NC(=O)C(C)NC)C3)c2)CCC2CCC(C(=O)NC(c3ccccc3)c3ccccc3)N2C1=O
Response line: 104

Prompt line: Ok, now NC1CCC(NC2CC2c2ccccc2)CC1 (stereo unspecified) + CNC(C)C(=O)NC1CN(S(=O)(=O)c2cccc(S(=O)(=O)N3CCC4CCC(C(=O)NC(c5ccccc5)c5ccccc5)N4C(=O)C(NC(=O)C(C)NC)C3)c2)CCC2CCC(C(=O)NC(c3ccccc3)c3ccccc3)N2C1=O
Response line: 110

Prompt line: Ok, now O=C(c1cc(Cc2n[nH]c(=O)c3ccccc23)ccc1F)N1CCN(C(=O)C2CC2)CC1 + CNC(C)C(=O)NC1CN(S(=O)(=O)c2cccc(S(=O)(=O)N3CCC4CCC(C(=O)NC(c5ccccc5)c5ccccc5)N4C(=O)C(NC(=O)C(C)NC)C3)c2)CCC2CCC(C(=O)NC(c3ccccc3)c3ccccc3)N2C1=O
Response line: 97.1

###

- Tested on: 885512-296-R-J2-PDC complex spheroid growth, % test/control
- Protocol: Anticancer human tumor 885512-296-R-J2-PDC cell line growth inhibition [Asc];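 further: spheroids exposed to compounds for seven days; 100% = DMSO vehicle control wells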
- Assay Setup: second compound 0.949 µM; first compound 0.01 µM; hits give low values
Consider the cut-off 60%. If the recorded viability, T/C is strictly smaller, the label is Yes; if not, the label is No.

Illustrative cases are given below, each with its answer.
>  <Compound>
NC1CCC(NC2CC2c2ccccc2)CC1 (stereo unspecified) + CCN1C(C(=O)NC23CCC(C(=O)O)(CC2)CC3)C(c2cccc(Cl)c2F)C2(C(=O)Nc3cc(Cl)ccc32)C12CCCCC2

>  <Label>
No

$$$$
>  <Compound>
CNC(C)C(=O)NC1CN(S(=O)(=O)c2cccc(S(=O)(=O)N3CCC4CCC(C(=O)NC(c5ccccc5)c5ccccc5)N4C(=O)C(NC(=O)C(C)NC)C3)c2)CCC2CCC(C(=O)NC(c3ccccc3)c3ccccc3)N2C1=O (stereo unspecified) + CCN1C(C(=O)NC23CCC(C(=O)O)(CC2)CC3)C(c2cccc(Cl)c2F)C2(C(=O)Nc3cc(Cl)ccc32)C12CCCCC2

>  <Label>
No

$$$$
>  <Compound>
O=C(c1ccc(F)c(F)c1Nc1ccc(I)cc1F)N1CC(O)([C@@H]2CCCCN2)C1 + CCN1C(C(=O)NC23CCC(C(=O)O)(CC2)CC3)C(c2cccc(Cl)c2F)C2(C(=O)Nc3cc(Cl)ccc32)C12CCCCC2

>  <Label>
Yes

$$$$

Here's the next entry for you.
Prompt line: Below 60% on viability, T/C? Entry COc1c(OCCCN2CCOCC2)ccc2c3n(c(=NC(=O)c4cnc(N)nc4)nc12)CCN3 + CCN1C(C(=O)NC23CCC(C(=O)O)(CC2)CC3)C(c2cccc(Cl)c2F)C2(C(=O)Nc3cc(Cl)ccc32)C12CCCCC2
Response line: Yes
